Value source: PubChem BioAssay

# Protocol Notes: S6 kinase pathway phospho-S6 level changes – cell-based, A549, cytoblot, luminescence, serum-stimulated, primary screen (AID 1158);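 also: serum-stimulated A549 lung adenocarcinoma cells; signal is phosphorylated S6 detected by cytoblot immunostaining with HRP secondary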
# Condition Label: 5 h, higher = more signal
Listed below: z-score values for each entry.
// response body must contain only the number

Example entries and their recorded answers appear below.
O=C1NC(=O)C2C1C=CC(C(O)c1ccc3c(c1)OCO3)N2Nc1ccc(Cl)cc1Cl (stereo not drawn) | -0.593
CC1(C)[C@@H]2CC(C(O)C3C=CC4C(=O)N(c5ccccc5)C(=O)C4N3Nc3ccccc3F)=C[C@@H]1C2 (stereo partly drawn) | 0.586
C=C(C(=O)CC[C@H](OC(=O)c1cccnc1)c1ccc(OCCO)cc1)C(C)C | 0.136
NC(=O)[C@H]1[C@@H]2C(=O)O[C@@H](c3ccccc3)[C@@H](c3ccccc3)N2[C@@H](c2ccc(O)cc2)[C@]12C(=O)Nc1ccc(C#CC3(O)CCCCCC3)cc12 | 1.54
COC(=O)C(CC#Cc1ccc2c(c1)[C@]1(C(=O)N2)[C@H](c2ccc(OCCO)cc2)N2[C@H](c3ccccc3)[C@H](c3ccccc3)OC(=O)[C@H]2[C@@H]1C(=O)O)C(=O)OC | 0.641
C[C@@]1([C@@H](NC(=O)c2cccs2)c2ccc(-c3ccccc3)cc2)C[C@H]1C1CCCCC1 | 2.17
CC(C)C[C@@H]1NC(=O)[C@@H]2C[C@H](C(=O)NCc3ccc(F)cc3)[C@H](c3ccc(O)cc3)N2C1=O | 0.0668

// below: z-score requested for another compound
Asked: Using the record for O=C1OCC=C[C@H]2OC34C=CCN(CCN5CCOCC5)C(=O)[C@H]3N(CCCCCO)C(=O)[C@@H]4[C@@H]12 (stereo partly drawn) , state its measured z-score.
Given back: 2.31

* * *

# Test System: Follistatin (Homo sapiens) (UniProt P19883)
# Sequence (P19883 whole entry, looked up): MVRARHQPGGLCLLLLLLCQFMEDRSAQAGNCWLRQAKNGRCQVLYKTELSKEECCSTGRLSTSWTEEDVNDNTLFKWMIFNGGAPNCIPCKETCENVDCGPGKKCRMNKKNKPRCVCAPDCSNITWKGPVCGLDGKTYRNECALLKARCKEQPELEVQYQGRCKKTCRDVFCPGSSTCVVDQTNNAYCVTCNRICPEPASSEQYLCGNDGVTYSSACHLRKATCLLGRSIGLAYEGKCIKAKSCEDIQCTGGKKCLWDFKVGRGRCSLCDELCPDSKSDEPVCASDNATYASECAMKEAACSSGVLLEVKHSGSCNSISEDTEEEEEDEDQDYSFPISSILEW
# Protocol Notes: FST protein binding to printed compounds – biochemical, small-molecule microarray, 635/667 nm fluorescence, primary screen (AID 1132)
# Condition Label: 635 nm fluorescence, higher = more signal
Measured Metric: composite z-score
// response body must contain only the number

Example entries and their recorded answers appear below.
CCOC(=O)C[C@H]1[C@H](OC(=O)c2cc3ccccc3oc2=O)[C@@H](NC(=O)c2ccc3ccccc3n2)c2cc(OCCCO)ccc2N1C(=O)c1ccc2ccccc2n1 | 0.99
O=C1O[C@@H](c2ccccc2)[C@@H](c2ccccc2)N2[C@@H](c3ccc(O)cc3)[C@]3(C(=O)Nc4ccc(C#CC5=CCCCC5)cc43)[C@@H](C(=O)Nc3nc4ccccc4s3)[C@H]12 | 1.25

// below: composite z-score requested for another molecule
Asked: Using the record for `CCCC=C(CCC)[C@@H](NS(=O)(=O)c1ccccc1)c1ccc(C(F)(F)F)cc1` , state its measured composite z-score.
Given back: 0.831

* * *

# Test System: Pro-neuregulin-1, membrane-bound isoform (Homo sapiens)
# Protocol Notes: small molecules binding neuregulin-1 protein – biochemical, small-molecule microarray, fluorescence 635/667, psychiatric disease protein project, primary screen (AID 1075);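 also: score combines 667 nm spot fluorescence with signal to noise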
# Condition Label: NRG1 binding, 635 nm fluorescence, higher = more signal
Is composite z-score at least 1? Then class 1. If not, class 0.

# example entries with known answers
COC(=O)[C@]1(Cc2ccccc2CN=[N+]=[N-])N=C(c2ccc(OCCCO)cc2)O[C@@H]1c1ccccc1CN=[N+]=[N-] | class 0
C=CCNC(=O)[C@H]1[C@@H]2C(=O)O[C@@H](c3ccccc3)[C@@H](c3ccccc3)N2[C@@H](c2ccc(O)cc2)[C@]12C(=O)N(C(=O)OCCOC)c1ccc(C#CC3(O)CCCCCC3)cc12 | class 1
COc1ccc(CCNC(=O)[C@@H]2c3ccccc3C(=O)N(Cc3ccccc3C(F)(F)F)[C@H]2c2ccc(CO)cc2)cc1 | class 1
COc1ccc([Si](C)(C)[C@@H]2[C@@H](CC(=O)N(CCO)Cc3ccccc3)O[C@]3(C(=O)N(Cc4ccc(N5CCOC5=O)cc4)c4ccccc43)[C@H]2C)cc1 | class 0
NC(=O)NCC#Cc1ccc2c(c1)[C@]1(C(=O)N2)[C@H](c2ccc(OCCO)cc2)N2[C@H](c3ccccc3)[C@H](c3ccccc3)OC(=O)[C@H]2[C@@H]1C(=O)N1CCCCCCC1 | class 1

Please turn your attention to the following entry.
Asked: Determine whether measured composite z-score meets or exceeds 1 for CN1C(=O)C2C=CC(C(O)C3CCCCC3)N(N(c3ccccc3)c3ccccc3)C2C1=O (stereo unspecified)
Given back: class 1
